TARGET OR SYSTEM: zif268 DBD R18Q/E21N (QN) (UniProt P08046 331-420, R349Q;E352N)
ASSAY REMARKS: EMSA (Scatchard x QuMFRA); derived; 30 mM Tris-HCl pH 8.0, 50 mM NaCl, 0.1 mg/ml BSA, 3 mM DTT, 20 uM ZnSO4, 5 ug/ml poly(dI-dC), 1 h on ice; 10% polyacrylamide gel
Measured Ka values are reported for all entries that follow.

Use these answered entries as a reference point.
Indicate the recorded Ka value for this binder: Zif_5 (AA) (dsDNA) DNA 1: TCGAGGTCGACGGTATCGCGTGGGAACTCCACTAGTTCTAGAGCGGCCGCCAC DNA 2: GTGGCGGCCGCTCTAGAACTAGTGGAGTTCCCACGCGATACCGTCGACCTCGA
18 10^6 M-1

Look up Ka of Zif_2 (CA) (dsDNA) DNA 1: TCGAGGTCGACGGTATCGCGTGGGCACTCCACTAGTTCTAGAGCGGCCGCCAC DNA 2: GTGGCGGCCGCTCTAGAACTAGTGGAGTGCCCACGCGATACCGTCGACCTCGA and report it.
3.5 10^6 M-1

Continue with the next binder.
Hello, please tell me recorded Ka for this one: Zif_1 (CG) (dsDNA) DNA 1: TCGAGGTCGACGGTATCGCGTGGGCGCTCCACTAGTTCTAGAGCGGCCGCCAC DNA 2: GTGGCGGCCGCTCTAGAACTAGTGGAGCGCCCACGCGATACCGTCGACCTCGA
7.4 10^6 M-1
